biological target: Sulfotransferase 1E1 (Homo sapiens, UniProt P49888); experiment: Substrate activity at SULT1E1 (unknown origin) expressed in baculovirus infected Sf9 cells assessed as substrate Vmax/Km ratio level incubated for 15 mins using [35S-]PAPS as sulfate donor by TLC analysis; settings: sf9, 0.25 h
Sequence (P49888 whole entry): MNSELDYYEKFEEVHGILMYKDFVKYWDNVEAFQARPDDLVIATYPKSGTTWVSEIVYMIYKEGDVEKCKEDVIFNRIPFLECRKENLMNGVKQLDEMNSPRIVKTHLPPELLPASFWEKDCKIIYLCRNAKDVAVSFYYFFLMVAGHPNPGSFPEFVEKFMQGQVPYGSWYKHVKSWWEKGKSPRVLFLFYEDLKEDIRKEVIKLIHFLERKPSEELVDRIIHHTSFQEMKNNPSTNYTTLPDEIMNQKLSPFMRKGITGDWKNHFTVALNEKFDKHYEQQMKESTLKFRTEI
Decide using Vmax/Km alone. Strictly below 2: t. Equal to or above 2: f.

### Prompt Hi there! Is Vmax/Km for `COc1ccc(-c2nc3ccc(O)cc3s2)cc1` below 2, do you know?
### Response f

### Prompt # repeat for `Oc1ccc2ccoc2c1`
### Response t

### Prompt Next entry: `CN(C)c1ccc(-c2nc3ccc(O)cc3s2)cc1`
### Response t

### Prompt What do you get for `Cc1nc2ccc(O)cc2s1` ?
### Response t

### Prompt Consider next the molecule `Oc1ccc2nc(-c3ccc(I)cc3)sc2c1` in the same way.
### Response f

### Prompt Please answer likewise for `CNc1ccc(-c2nc3cc(O)ccc3s2)cc1`
### Response t

### Prompt Same read-out for `N#Cc1ccc(-c2nc3ccc(O)cc3s2)cc1` ?
### Response f

### Prompt Next record, please: `Oc1ccc2nc(-c3ccc(F)cc3)sc2c1`
### Response f

### Prompt Now give it for `CC(=O)Nc1ccc(-c2nc3ccc(O)cc3s2)cc1` too.
### Response t

### Prompt `O=[N+]([O-])c1ccc(-c2nc3ccc(O)cc3s2)cc1` ?
### Response f

### Prompt Here is the next molecule: `Oc1ccc2ccsc2c1`
### Response t

### Prompt Next: `Oc1ccc2ccccc2c1`
### Response t

### Prompt // same read-out, input: `CN(C)c1ccc(-c2nc3cc(O)ccc3s2)cc1`
### Response f

### Prompt Follow-up item: `Nc1ccc(-c2nc3ccc(O)cc3s2)cc1`
### Response t
